Tested on: SR leukemia
assayText: NCI-60 one-dose screen, 48 h (100 = growth as untreated, 0 = no growth, -100 = all killed)
particulars: 10 µM unless noted
About 83,000 compounds went through this panel and 20% of them were active in at least one assay; those are over-represented in the sample as a whole.
recordedEndpoint: growth (%)
Write the value in % as a bare number.

Query: Could you tell me which growth is on file for CSc1nc(N)c2c(n1)N(C)C=NS2(=O)=O ?
Result: 102

Query: Could you tell me which growth is on file for N#Cc1c(-c2ccc(F)cc2)n2c(nc1=O)SC(=O)C2=O ?
Result: 91.3

Query: Could you tell me which growth is on file for COc1cc(C2CC(C3C(=O)N(C)C(=O)N(C)C3=O)=NN2c2cc(Cl)cc(Cl)c2)cc(OC)c1OC (configuration not stated) ?
Result: 94.5

Query: Could you tell me which growth is on file for O=C(NCCNC(=O)Oc1cccc2ccccc12)Oc1cccc2ccccc12 ?
Result: 97.8

Query: Could you tell me which growth is on file for Fc1ccccc1C1c2ccccc2-c2nccn21 (configuration not stated) ?
Result: 78.1

Query: Could you tell me which growth is on file for O=C(CC(C(=O)c1ccccc1)N1CCN(Cc2ccccc2)CC1)c1ccccc1 (configuration not stated) ?
Result: 57.2

Query: Could you tell me which growth is on file for COc1cc(/C=N/OC(=O)Nc2ccccc2)cc(OC)c1OC ?
Result: 89.7
